The reported measurements were obtained from patent US11547681B2.

test.method.notes: Liver microsomal stability, mouse
stated.conditions: male, CD-1, mouse, microsomes, CLint, Control Compound; Mouse liver microsomes
readout.kind: microsomal CLint (µL/min/mg)

>>> print(df.to_string())
                                   compound      readout_kind      units  observed_measurement
0  C[C@]12CC[C@H]3[C@@H](CCC4=CC(=O)CC[C@@]43C)[C@@H]1CC[C@@H]2O [Testosterone, testosterone, reference compound]  microsomal CLint  µL/min/mg                   444

----------
test.method.notes: Pharmacokinetics of PEA after intravenous administration in male Sprague-Dawley rats
Type: in vivo, Sprague-Dawley rat
stated.conditions: male, Sprague-Dawley, rat, in vivo, iv, 1 mg/kg, t1/2 (average half-life), Mean
readout.kind: half-life (min)

In [3]: df
Out[3]:
                                   compound  observed_measurement
0  CCCCCCCCCCCCCCCC(=O)NCCO [PEA, palmitoylethanolamide]                  35.8

----------
test.method.notes: in vitro
stated.conditions: male, Sprague-Dawley, rat, 10 min, 1 μM
readout.kind: Concentration (μM) of analyte PEA, 10 min (µM)

compound	units	observed.measurement
CCCCC/C=C\C/C=C\CCCCCCCC(=O)OCCNC(=O)CCCCCCCCCCCCCCC [Compound I-6]	µM	0.088
CCCCCCCCCCCCCCCC(=O)NCCOC(=O)CCC(=O)OCC(COC(=O)CCCCCCC)OC(=O)CCCCCCC (stereo not shown) [Compound I-3, PEA-Succinate-Glycerol-Di-Caprylic]	µM	0.024
CC/C=C\C/C=C\C/C=C\C/C=C\C/C=C\CCCC(=O)OCCNC(=O)CCCCCCCCCCCCCCC [Compound I-5]	µM	0.062
CCCCCCCCCCCCCCCC(=O)NCCOC(=O)CCC [Compound I-2]	µM	0.63
CCCCCCCCCCCCCCCC(=O)NCCOC(=O)CCC(=O)OC[C@H]1O[C@@](CO)(O[C@H]2O[C@H](CO)[C@@H](O)[C@H](O)[C@H]2O)[C@@H](O)[C@@H]1O [Compound I-7]	µM	0.24
CCCCCCCCCCCCCCCC(=O)NCCOC(=O)CCC(=O)OCC(COC(=O)CCC)OC(=O)CCC (stereo not shown) [Compound I-11]	µM	0.13
CCCCCCCCCCCCCCCC(=O)NCCOC(=O)CCC(=O)OCC(O)CO (stereo not shown) [Compound I-9]	µM	0.22

----------
test.method.notes: in vitro
stated.conditions: male, CD-1, mouse, 10 min, 1 μM
Define the label as 1.0 when Measured concentration of analyte PEA, 10 min is strictly less than 0.08 µM and as 0.0 in all remaining cases.

molecule	category
CCCCCCCCCCCCCCCC(=O)NCCOC(=O)CCC [Compound I-2]	0.0
CCCCCCCCCCCCCCCC(=O)NCCOC(=O)CCC(=O)OC[C@H]1O[C@@](CO)(O[C@H]2O[C@H](CO)[C@@H](O)[C@H](O)[C@H]2O)[C@@H](O)[C@@H]1O [Compound I-7]	0.0
CCCCCCCCCCCCCCCC(=O)NCCOC(=O)CCC(=O)OCC(O)CO (stereo not shown) [Compound I-9]	0.0
CCCCCCCCCCCCCCCC(=O)NCCOC(=O)CCC(=O)OCC(COC(=O)CCCCCCC)OC(=O)CCCCCCC (stereo not shown) [Compound I-3, PEA-Succinate-Glycerol-Di-Caprylic]	1.0
CCCCCCCCCCCCCCCC(=O)NCCOC(=O)CCC(=O)OCC(COC(=O)CCC)OC(=O)CCC (stereo not shown) [Compound I-11]	0.0
CCCCC/C=C\C/C=C\CCCCCCCC(=O)OCCNC(=O)CCCCCCCCCCCCCCC [Compound I-6]	1.0
